target: Cytochrome P450 3A4 (Homo sapiens); test: Cytochrome panel assay with activity outcomes; settings: recombinant CYP, pro-luciferin dealkylation, luminescence, p450-cyp3a4; series mostly up to 57.1 µM; further: on the % scale 0 is the no-effect control and ±100 the full control effect
Hit rate of the full screen: of about 16,000 compounds, about 5,100 (32%) were called active. Another 25% or so got no clear call; they are omitted. The list shows a part of the results.
Field: activity, negative = inhibition. Provide a value for each of the molecules that follow.

Below are worked cases with known answers.
> print(dat)
                             compoundsmiles                  observationtype                   observedresult
1                       CCN(CC(=O)O)CC(=O)O  activity, negative = inhibition  0.0109% [at 11.4 µM] (inactive)
2  Cc1cc(NC(=O)COc2ccc(Cl)cc2Cl)n(-c2ccccc2)n1  activity, negative = inhibition   -28.2% [at 11.4 µM] (inactive)
3  Cn1c(N)nc2c(nc(OCc3ccccc3)n2[C@@H]2O[C@H](CO)[C@@H](O)[C@@H]2O)c1=O  activity, negative = inhibition   -4.84% [at 11.4 µM] (inactive)
4                     Oc1ccccc1CNCc1ccccc1O  activity, negative = inhibition   -7.01% [at 11.4 µM] (inactive)
5  Cc1ccccc1C(=O)Nc1ccc(C(=O)NNC(=O)CCCOc2ccc(Cl)cc2Cl)cc1  activity, negative = inhibition   -18.9% [at 2.29 µM] (inactive)

Now consider a different molecule.
Name the reported activity, negative = inhibition value associated with the molecule "O=C(NCCc1ccc(O)cc1)c1ccc(Cl)cc1"
1.62% [at 2.29 µM] (inactive)

Measured values drawn from PubChem BioAssay AID1851 for this set.
